Exercise: state measured peptide exchange yield for each of the binders provided.
- testSystem: T1, HLA-A*02:01 (human)
- T1 construct: Peptide-receptive MHC class I monomer in the UV-ligand exchange assay
- experimentalDetails: UV peptide exchange, anti-b2m ELISA; exchange yield grade

// query Entry ILMILQPQL : reported peptide exchange yield = ?
// result ≥ 75%

// query Entry ALGPMAFRV : reported peptide exchange yield = ?
// result ≥ 75%

// query Entry SLSKLVATV : reported peptide exchange yield = ?
// result ≥ 75%

// query Entry YMLEMDNSMKI : reported peptide exchange yield = ?
// result ≥ 75%

// query Entry SLKSSILFL : reported peptide exchange yield = ?
// result 50 to 75%

// query Entry GLLDAFLRL : reported peptide exchange yield = ?
// result ≥ 75%

// query Entry ALNLSRLTV : reported peptide exchange yield = ?
// result ≥ 75%

// query Entry LLGVVSHSV : reported peptide exchange yield = ?
// result ≥ 75%

// query Entry FALGPIIKQL : reported peptide exchange yield = ?
// result 50 to 75%

// query Entry RLQEGLAAL : reported peptide exchange yield = ?
// result ≥ 75%

// query Entry SLFPISLTV : reported peptide exchange yield = ?
// result ≥ 75%

// query Entry HLFSVLSAI : reported peptide exchange yield = ?
// result ≥ 75%

// query Entry ITPDSIPSV : reported peptide exchange yield = ?
// result 50 to 75%

// query Entry VLQSLQHEL : reported peptide exchange yield = ?
// result ≥ 75%

// query Entry RLLRLIPIL : reported peptide exchange yield = ?
// result ≥ 75%

// query Entry IQAPALLKV : reported peptide exchange yield = ?
// result ≥ 75%
